- measured target: protein farnesyltransferase (Rattus norvegicus, UniProt Q02293+Q04631)
- Construct: Rat brain protein farnesyltransferase activity is measured; from tissue; host or cells: rat brain; purified according to Reiss et al., Cell 62:81-88 (1990), steps one through three
- measurement protocol: in vitro inhibition of protein farnesyltransferase (scintillation proximity assay, biotin-K Ras B fragment)
- Format: biochemical
- condition context: at 1 × 10^-7 M
Output MET for % inhibition of farnesyltransferase not less than 90%; output NOT MET otherwise.

Consider the worked cases shown below.
CSCC[C@H](NC(=O)c1ccc(COc2ccc(Oc3ccccc3)cc2)cc1-c1ccccc1C)C(=O)[O-].[Li+] | NOT MET
CSCC[C@H](NC(=O)c1ccc(COCc2cnco2)cc1-c1ccccc1C)C(=O)[O-].[Li+] | MET

Note: attention shifts to another entry.
Ask: API: above_or_equal(metric=% inhibition of farnesyltransferase, cutoff=90%) for item CSCC[C@H](NC(=O)c1ccc(COCC2CCCCC2)cc1-c1ccccc1C)C(=O)[O-].[Li+]
Result: MET
